molecular target: human neutrophil elastase (Homo sapiens, UniProt P08246); construct: purchased Elastin Products Company; assay: Inhibitory action against human neutrophil elastase (Test Example 1; fluorogenic substrate MeOSuc-AAPV-AMC, buffer with 2M NaCl, 0.002% Brij-35); format: biochemical; details: 37° C., read-out: IC50 value (compound concentration required for 50% inhibition of human neutrophil elastase)
Sequence (P08246 30-267): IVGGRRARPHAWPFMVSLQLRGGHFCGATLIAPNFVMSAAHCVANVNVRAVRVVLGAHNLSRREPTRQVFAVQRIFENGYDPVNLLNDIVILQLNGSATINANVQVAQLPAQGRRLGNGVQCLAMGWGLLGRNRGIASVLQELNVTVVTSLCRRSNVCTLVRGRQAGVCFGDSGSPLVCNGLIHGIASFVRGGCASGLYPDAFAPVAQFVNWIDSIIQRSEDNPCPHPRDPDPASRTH
pIC50: −log10 of the molar value.
REPORTED PROPERTY: pIC50

# COMPOUND, pIC50
rows = [
    ("Cc1c(-c2ccnn2-c2ccc(C#N)cc2)c(=O)n(CC=O)c(=O)n1-c1cccc(C(F)(F)F)c1 [Example 68]", 6.95),
]

a: Cc1c(-c2ccnn2-c2ccc(C#N)cc2)c(=O)n(CC(=O)O)c(=O)n1-c1cccc(C(F)(F)F)c1 [Example 72]
b: Cc1c(-c2ccnn2-c2ccc(C#N)cc2)c(=O)n(C)c(=O)n1-c1cccc(C(N)=O)c1 [Example 104]
Sorting ascending by pIC50, which comes first: a or b ? Response format: the label of the selected entry.
b
